Experiment: Drug concentration in mouse plasma at 30 mg/kg, po measured at 7 hrs
Assay type: ADME, organism-based
readout.type: concentration at 7 h (ng/mL)

input_smiles=N[C@@H]1[C@H]2CN(c3cnc(C(=O)Nc4cc(F)cc5cccnc45)cn3)C[C@@H]12 readout_type="concentration at 7 h" output_unit=ng/mL readout_value=293

###

Experiment: Drug concentration in mouse liver at 15 mg/kg, iv measured at 24 hrs
Format: ADME, organism-based
Conditions: read-out: Ct
readout.type: concentration at 24 h (ng/g)

input_smiles=N[C@@H]1[C@H]2CN(c3cnc(C(=O)Nc4cc(F)cc5cccnc45)cn3)C[C@@H]12 readout_value=48

###

Tested on: MIA PaCa-2
Assay: Cytotoxicity against human MIA PaCa-2 cells by MTT assay
Format: functional, cell-based
Note to self: class = bucket of IC50, per lower band: < 1000 nM; central band: ≥ 1000 nM and < 3000 nM; upper band: ≥ 3000 nM

molecule=Cc1cc(NC(=O)c2cnc(N3CCN(C(=O)C4CC4)CC3)cn2)c2ncccc2c1 label_class="central band"
molecule="O=C(Nc1cc(F)cc2cccnc12)c1cnc(N2CC3CC2CN3)cn1 (centres undefined)" label_class="upper band"
molecule=C[C@@H]1OCC2(CCN(c3cnc(C(=O)Nc4cc(F)cc5cccnc45)cn3)CC2)[C@@H]1N label_class="central band"
molecule=CS(=O)(=O)N1CCN(c2cnc(C(=O)Nc3cc(F)cc4cccnc34)cn2)CC1 label_class="upper band"
molecule=CN(NC(=O)CC(=O)NN(C)C(=S)c1ccccc1)C(=S)c1ccccc1 label_class="lower band"
molecule="O=C(Nc1cc(F)cc2cccnc12)c1cnc(N2CC3CC2CO3)cn1 (centres undefined)" label_class="lower band"
molecule=CC1(N)CN(c2cnc(C(=O)Nc3cc(F)cc4cccnc34)cn2)C1 label_class="central band"
molecule=CN(C)C/C=C/C(=O)N1CCN(c2cnc(C(=O)Nc3cc(F)cc4cccnc34)cn2)CC1 label_class="upper band"

###

Tested on: PANC-1
Assay: Cytotoxicity against human PANC-1 cells by MTT assay
Format: functional, cell-based
readout.type: IC50 (nM)

input_smiles=C[C@@H]1OCC2(CCN(c3cnc(C(=O)Nc4cc(F)cc5cccnc45)cn3)CC2)[C@@H]1N output_unit=nM readout_value=2900
input_smiles=N[C@@H]1[C@H]2CN(c3cnc(C(=O)Nc4cc(F)cc5cccnc45)cn3)C[C@@H]12 output_unit=nM readout_value=4400
input_smiles=CN(NC(=O)CC(=O)NN(C)C(=S)c1ccccc1)C(=S)c1ccccc1 output_unit=nM readout_value=30
input_smiles=CCN(CC)C(=S)SSC(=S)N(CC)CC output_unit=nM readout_value=100

###

Test: Drug concentration in mouse liver at 15 mg/kg, iv measured at 7 hrs
Type: ADME, organism-based
Settings: read-out: Ct
readout.type: concentration at 7 h

input_smiles=N[C@@H]1[C@H]2CN(c3cnc(C(=O)Nc4cc(F)cc5cccnc45)cn3)C[C@@H]12 readout_type="concentration at 7 h" readout_value="2140 ng/g"

###

Measured half-life, listed per entry.
Assay: Half life in CD-1 mouse at 30 mg/kg, po measured up to 24 hrs by LC-MS/MS analysis
Format: ADME, organism-based
Conditions: in vivo
readout.type: half-life

input_smiles=C[C@@H]1OCC2(CCN(c3cnc(C(=O)Nc4cc(F)cc5cccnc45)cn3)CC2)[C@@H]1N readout_type=half-life readout_value="4.9 h"
input_smiles=N[C@@H]1[C@H]2CN(c3cnc(C(=O)Nc4cc(F)cc5cccnc45)cn3)C[C@@H]12 readout_type=half-life readout_value="3.1 h"
